- study-system: BRD4 BD2 (Homo sapiens, UniProt O60885)
- method: AlphaScreen binding assay, BRD4 Bromodomain 2
- Procedure: The binding of Example compounds to BRD4 Bromodomain 1 and BRD4 Bromodomain 2 was assessed using 384-well AlphaScreen assay technology. His-epitope tagged BRD4 BD144-168 and BRD4 BD2333-460 were cloned, expressed, and purified to homogeneity. BRD4 BD1 and BRD4 BD2 binding and inhibition was assessed by monitoring the engagement of biotinylated Histone H4 (1-21) K5/8/12/16 tetra-acetylated peptide with the targets using the AlphaScreen technology (PerkinElmer). […]
value-kind: IC50

Data request, read-out IC50, for CC(=O)N1c2ccc(-c3ccc(N4CCCS4(=O)=O)cc3)cc2N(C(=O)OC2CC(F)(F)C2)C[C@@H]1C [Example I-29]
> 500 nM

Entry CC(=O)N1c2ccc(-c3cnn(CCN4CCOCC4)c3)cc2N(C(=O)C2CC2)C[C@@H]1C [Example I-151] please
50 to 500 nM

Entry COC(=O)N1c2ccc(-c3cnc(N)cn3)cc2N(C(=O)C2CC2)C[C@@H]1C [Example I-458] please
50 to 500 nM

Entry CC(=O)N1c2ccc(-c3cccc(-c4ccccc4)c3)cc2N(C(=O)COc2ccccc2)C[C@@H]1C [Example I-792] please
50 to 500 nM

Entry CC(=O)N1c2ccccc2N(C(=O)c2cc(C)c(C)o2)C[C@@H]1C [Example I-750] please
> 500 nM

Entry CC(=O)N1c2ccc(-c3ccc(-n4cccn4)cc3)cc2N(C(=O)c2ccco2)C[C@@H]1C [Example I-803] please
50 to 500 nM

Entry CC(=O)N1c2ccccc2N(S(=O)(=O)c2cccc(Cl)c2)C[C@@H]1C [Example I-946] please
> 500 nM

Entry CC(=O)N1c2ccc(-c3cnn(C4CC4)c3)cc2N(C(=O)Oc2cc(F)ccc2C)C[C@@H]1C [Example I-1200] please
50 to 500 nM

Entry CC(=O)N1c2ccc(-c3ccc(C(=O)NCCN(C)C)cc3)cc2N(C(=O)OC(C)C)C[C@@H]1C [Example I-533] please
50 to 500 nM

Entry CC(=O)N1c2ccc(-c3cnsc3)cc2N(C(=O)c2ccco2)C[C@@H]1C [Example I-432] please
50 to 500 nM

Entry CC(=O)N1c2ccc(-c3ccc(C(=O)NCCN)cc3)cc2N(C(=O)C2CC2)C[C@@H]1C [Example I-451] please
50 to 500 nM

Entry CC(=O)N1c2ccccc2N(Cc2ccccn2)C[C@@H]1C [Example I-913] please
> 500 nM

Entry COC(=O)N1c2ccc(-c3ccc(N4CCCS4(=O)=O)cc3)cc2N(C(=O)Oc2cccnc2)C[C@@H]1C [Example I-1287] please
> 500 nM

Entry CC(=O)N1c2ccc(-c3cnn(CCCO)c3)cc2N(C(=O)OC(C)C)C[C@@H]1C [Example I-137] please
50 to 500 nM

Entry CC(=O)N1c2ccc(-c3ccc4[nH]ccc4n3)cc2N(C(=O)c2ccco2)CC1C (stereo not shown) [Example I-397] please
50 to 500 nM

Entry CC(=O)N1c2ccc(-c3ccc(S(=O)(=O)n4cccn4)cc3)cc2N(C(=O)C2CCC2)C[C@@H]1C [Example I-1116] please
50 to 500 nM

====

- study-system: BRD4 BD2 (Homo sapiens)
- method: AlphaScreen binding assay, BRD4 Bromodomain 2
value-kind: IC50

Data request, read-out IC50, for CC(=O)N1c2ccc(-c3cnn(CC4(CO)COC4)c3)cc2N(C(=O)C2CC2)C[C@@H]1C
50 to 500 nM

Entry CCOC(=O)N1C[C@H](C)N(C(C)=O)c2ccc(-c3cccc(S(=O)(=O)NCCO)c3)cc21 please
50 to 500 nM

Entry CC(=O)N1c2ccccc2N(C(=O)c2cc3ccncc3o2)C[C@@H]1C please
> 500 nM

Entry CC(=O)N1c2ccc(-c3cnn(C4CC4)c3)nc2N(C(=O)NC(C)C)C[C@@H]1C please
> 500 nM

Entry CC(C)OC(=O)N1C[C@H](C)N(C(=O)C2CC2)c2ccc(-c3ccc(N4CCS(=O)(=O)CC4)cc3)cc21 please
50 to 500 nM

Entry CC(=O)N1c2ccc(-c3ccc(N4CCCS4(=O)=O)c(F)c3)cc2N(C(=O)OC(C)C)C[C@@H]1C please
50 to 500 nM

Entry COC(=O)N1c2ccc(-c3ccc(CS(N)(=O)=O)cc3)cc2N(C(=O)C2CC2)C[C@@H]1C please
50 to 500 nM

Entry CC(=O)N1c2ccc(-c3cnn(Cc4cc(C)on4)c3)cc2N(C(=O)OC(C)C)C[C@@H]1C please
50 to 500 nM

Entry CC(=O)N1CCN(C(=O)c2ccc(-c3ccc4c(c3)N(C(=O)OC(C)C)C[C@H](C)N4C(C)=O)cc2)CC1 please
50 to 500 nM

Entry CC(C)OC(=O)N1C[C@H](C)N(C(=O)C2CC2)c2ccc(-c3cnn(C4CC4)c3)cc21 please
50 to 500 nM

Entry CC(=O)N1c2ccc(-c3ccc(S(C)(=O)=O)cc3)cc2N(C(=O)NCc2ccc(C)cc2)C[C@@H]1C please
> 500 nM

Entry CC(=O)N1c2ccccc2N(C(=O)c2cc(C)oc2C)C[C@@H]1C please
> 500 nM

Entry CC(=O)N1c2ccc(-c3ccc4c(c3)CCN4S(C)(=O)=O)cc2N(C(=O)c2ccco2)C[C@@H]1C please
50 to 500 nM

Entry COC(=O)N1c2ccc(-c3cnn(Cc4c[nH]cn4)c3)cc2N(C(=O)OC(C)C)CC1C (centres unmarked) please
50 to 500 nM

Entry CC(=O)N1c2ccc(-c3ccc(S(=O)(=O)N(C)C)cc3)cc2N(C(=O)c2ccco2)C[C@@H]1C please
< 50 nM

Entry CC(=O)N1c2ccccc2N(Cc2cccc(Oc3ccccc3)c2)C[C@@H]1C please
> 500 nM

Entry CC(=O)N1c2ccc(-c3cnn(C4CC4)c3)cc2N(C(=O)Oc2cncc3ccccc23)C[C@@H]1C please
50 to 500 nM

Entry CCOC(=O)N1C[C@H](C)N(C(C)=O)c2ccc(-c3ccc(N4CCCS4(=O)=O)c(F)c3)cc21 please
50 to 500 nM

Entry CNC(=O)CN(C)C(=O)c1ccc(-c2ccc3c(c2)N(C(=O)OC(C)C)C[C@H](C)N3C(C)=O)cc1 please
< 50 nM

Entry CC(=O)N1c2ccc(-c3cnn(C4CC4)c3)cc2N(C(=O)Oc2ccc3cnccc3c2)C[C@@H]1C please
< 50 nM

Entry CC(=O)N1c2cc(C#N)c(-c3ccc(S(C)(=O)=O)cc3)cc2N(C(=O)OC(C)C)C[C@@H]1C please
> 500 nM

Entry CC(=O)Nc1cc2c(cc1-c1ccc(S(C)(=O)=O)cc1)N(C(=O)OC(C)C)C[C@H](C)N2C(C)=O please
> 500 nM

Entry CCOC(=O)N1C[C@H](C)N(C(C)=O)c2ccc(-c3cccc(NS(C)(=O)=O)c3)cc21 please
50 to 500 nM

Entry CC(=O)N1c2ccc(-c3cccc(N4CCCS4(=O)=O)c3)cc2N(C(=O)C2CC2)C[C@@H]1C please
50 to 500 nM

Entry CC(=O)N1c2ccc(-c3ccc(S(=O)(=O)CC(=O)N(C)C)cc3)cc2N(C(=O)c2ccco2)C[C@@H]1C please
50 to 500 nM

Entry CC(=O)N1c2ccc(-c3cnn(CC(=O)N(C)C4CC4)c3)cc2N(C(=O)C2CC2)C[C@@H]1C please
50 to 500 nM

Entry CC(=O)N1c2ccc(-c3ccc(S(=O)(=O)CC4CC4)cc3)cc2N(C(=O)C2CC2)C[C@@H]1C please
50 to 500 nM

Entry CC(=O)N1c2ccc(-c3cn[nH]c3)cc2N(C(=O)Oc2ccccc2)C[C@@H]1C please
< 50 nM

Entry COCC(=O)N1C[C@H](C)N(C(C)=O)c2ccccc21 please
> 500 nM
